Activity for assorted compounds
- Test system: Salmonella typhimurium
- test_summary: Mutagenic activity in Salmonella Typhimurium TA97 assessed as number of his+ revertants at 500 ug/plate after 48 to 72 hrs by Ames test in presence of S9 fraction
- Assay type: toxicity, organism-based
- experimental_context: salmonella enterica subsp. enterica serovar typhimurium
No unit in the answer, please; the number alone is enough.

Some solved cases for reference:
{"columns": ["smiles_representation", "tested_on", "Activity"],
 "data": [
  ["C/C=C/c1ccc(OC)c(OC)c1OC", "Salmonella typhimurium", 200],
  ["C/C=C/c1cc(OC)c(OC)c(OC)c1", "Salmonella typhimurium", 164],
  ["C/C=C/c1c(OC)cc(OC)cc1OC", "Salmonella typhimurium", 200]
]}

We now examine a further compound.
Q: Reported Activity for C/C=C/c1c(OC)ccc(OC)c1OC.CC(C)CCC[C@@H](C)[C@H]1CC[C@H]2[C@@H]3CC=C4C[C@@H](O)CC[C@]4(C)[C@H]3CC[C@]12C : what is it?
A: 126

----------
- Tested on: Salmonella typhimurium
- test_summary: Mutagenic activity in Salmonella Typhimurium TA102 assessed as number of his+ revertants at 500 ug/plate after 48 to 72 hrs by Ames test in presence of S9 fraction
- Format: toxicity, organism-based
- experimental_context: salmonella enterica subsp. enterica serovar typhimurium
recorded_metric: Activity
No unit in the answer, please; the number alone is enough.

{"columns": ["smiles_representation", "reported_result"],
 "data": [
  ["C/C=C/c1c(OC)cc(OC)cc1OC", 328]
]}

Q: Reported Activity for C/C=C/c1cc(OC)c(OC)c(OC)c1 : what is it?
A: 236

Q: Reported Activity for C/C=C/c1ccc(OC)c(OC)c1OC : what is it?
A: 335

Q: Reported Activity for C/C=C/c1c(OC)ccc(OC)c1OC.CC(C)CCC[C@@H](C)[C@H]1CC[C@H]2[C@@H]3CC=C4C[C@@H](O)CC[C@]4(C)[C@H]3CC[C@]12C : what is it?
A: 162

----------
- Tested on: Salmonella typhimurium
- test_summary: Mutagenic activity in Salmonella Typhimurium TA97 assessed as number of his+ revertants at 1000 ug/plate after 48 to 72 hrs by Ames test in absence of S9 fraction
- Type: toxicity, organism-based
- experimental_context: salmonella enterica subsp. enterica serovar typhimurium
Activity for assorted compounds
No unit in the answer, please; the number alone is enough.

Some solved cases for reference:
{"columns": ["smiles_representation", "Activity"],
 "data": [
  ["C/C=C/c1cc(OC)c(OC)c(OC)c1", 73],
  ["C/C=C/c1c(OC)cc(OC)cc1OC", 223],
  ["C/C=C/c1ccc(OC)c(OC)c1OC", 131]
]}

We now examine a further compound.
Q: Reported Activity for C/C=C/c1c(OC)ccc(OC)c1OC.CC(C)CCC[C@@H](C)[C@H]1CC[C@H]2[C@@H]3CC=C4C[C@@H](O)CC[C@]4(C)[C@H]3CC[C@]12C : what is it?
A: 141

----------
- Tested on: Salmonella typhimurium
- test_summary: Mutagenic activity in Salmonella Typhimurium TA98 assessed as number of his+ revertants at 500 ug/plate after 48 to 72 hrs by Ames test in presence of S9 fraction
- Assay type: toxicity, organism-based
- experimental_context: salmonella enterica subsp. enterica serovar typhimurium
Activity for assorted compounds

Some solved cases for reference:
{"columns": ["smiles_representation", "recorded_metric", "reported_result"],
 "data": [
  ["C/C=C/c1c(OC)ccc(OC)c1OC.CC(C)CCC[C@@H](C)[C@H]1CC[C@H]2[C@@H]3CC=C4C[C@@H](O)CC[C@]4(C)[C@H]3CC[C@]12C", "Activity", 27],
  ["C/C=C/c1c(OC)cc(OC)cc1OC", "Activity", 18],
  ["C/C=C/c1ccc(OC)c(OC)c1OC", "Activity", 43]
]}

Q: Reported Activity for C/C=C/c1cc(OC)c(OC)c(OC)c1 : what is it?
A: 18

----------
Activity for assorted compounds
- Tested on: Salmonella typhimurium
- test_summary: Mutagenic activity in Salmonella Typhimurium TA102 assessed as number of his+ revertants at 500 ug/plate after 48 to 72 hrs by Ames test in absence of S9 fraction
- Assay type: toxicity, organism-based
- experimental_context: salmonella enterica subsp. enterica serovar typhimurium
No unit in the answer, please; the number alone is enough.

Some solved cases for reference:
{"columns": ["smiles_representation", "tested_on", "recorded_metric", "reported_result"],
 "data": [
  ["C/C=C/c1c(OC)ccc(OC)c1OC.CC(C)CCC[C@@H](C)[C@H]1CC[C@H]2[C@@H]3CC=C4C[C@@H](O)CC[C@]4(C)[C@H]3CC[C@]12C", "Salmonella typhimurium", "Activity", 159],
  ["C/C=C/c1c(OC)cc(OC)cc1OC", "Salmonella typhimurium", "Activity", 298],
  ["C/C=C/c1cc(OC)c(OC)c(OC)c1", "Salmonella typhimurium", "Activity", 155]
]}

Q: Reported Activity for C/C=C/c1ccc(OC)c(OC)c1OC : what is it?
A: 203

----------
- Test system: Salmonella typhimurium
- test_summary: Mutagenic activity in Salmonella Typhimurium TA102 assessed as number of his+ revertants at 100 ug/plate after 48 to 72 hrs by Ames test in absence of S9 fraction
- Type: toxicity, organism-based
- experimental_context: salmonella enterica subsp. enterica serovar typhimurium
recorded_metric: Activity
No unit in the answer, please; the number alone is enough.

Some solved cases for reference:
{"columns": ["smiles_representation", "Activity"],
 "data": [
  ["C/C=C/c1ccc(OC)c(OC)c1OC", 236],
  ["C/C=C/c1c(OC)cc(OC)cc1OC", 275],
  ["C/C=C/c1c(OC)ccc(OC)c1OC.CC(C)CCC[C@@H](C)[C@H]1CC[C@H]2[C@@H]3CC=C4C[C@@H](O)CC[C@]4(C)[C@H]3CC[C@]12C", 270]
]}

Q: Reported Activity for C/C=C/c1cc(OC)c(OC)c(OC)c1 : what is it?
A: 241

----------
- System: Salmonella typhimurium
- test_summary: Mutagenic activity in Salmonella Typhimurium TA97 assessed as number of his+ revertants at 1000 ug/plate after 48 to 72 hrs by Ames test in presence of S9 fraction
- Format: toxicity, organism-based
- experimental_context: salmonella enterica subsp. enterica serovar typhimurium
Activity for assorted compounds

Some solved cases for reference:
{"columns": ["smiles_representation", "Activity"],
 "data": [
  ["C/C=C/c1ccc(OC)c(OC)c1OC", 172],
  ["C/C=C/c1c(OC)cc(OC)cc1OC", 187]
]}

Q: Reported Activity for C/C=C/c1c(OC)ccc(OC)c1OC.CC(C)CCC[C@@H](C)[C@H]1CC[C@H]2[C@@H]3CC=C4C[C@@H](O)CC[C@]4(C)[C@H]3CC[C@]12C : what is it?
A: 171

Q: Reported Activity for C/C=C/c1cc(OC)c(OC)c(OC)c1 : what is it?
A: 155

----------
- System: Salmonella typhimurium
- test_summary: Mutagenic activity in Salmonella Typhimurium TA98 assessed as number of his+ revertants at 1000 ug/plate after 48 to 72 hrs by Ames test in presence of S9 fraction
- Assay type: toxicity, organism-based
- experimental_context: salmonella enterica subsp. enterica serovar typhimurium
Activity for assorted molecules
No unit in the answer, please; the number alone is enough.

Some solved cases for reference:
{"columns": ["smiles_representation", "Activity"],
 "data": [
  ["C/C=C/c1ccc(OC)c(OC)c1OC", 26],
  ["C/C=C/c1c(OC)cc(OC)cc1OC", 22],
  ["C/C=C/c1c(OC)ccc(OC)c1OC.CC(C)CCC[C@@H](C)[C@H]1CC[C@H]2[C@@H]3CC=C4C[C@@H](O)CC[C@]4(C)[C@H]3CC[C@]12C", 42]
]}

We now examine a further molecule.
Q: Reported Activity for C/C=C/c1cc(OC)c(OC)c(OC)c1 : what is it?
A: 15

----------
- Tested on: Salmonella typhimurium
- test_summary: Mutagenic activity in Salmonella Typhimurium TA102 assessed as number of his+ revertants at 100 ug/plate after 48 to 72 hrs by Ames test in presence of S9 fraction
- Assay type: toxicity, organism-based
- experimental_context: salmonella enterica subsp. enterica serovar typhimurium
recorded_metric: Activity
No unit in the answer, please; the number alone is enough.

Some solved cases for reference:
{"columns": ["smiles_representation", "recorded_metric", "reported_result"],
 "data": [
  ["C/C=C/c1c(OC)ccc(OC)c1OC.CC(C)CCC[C@@H](C)[C@H]1CC[C@H]2[C@@H]3CC=C4C[C@@H](O)CC[C@]4(C)[C@H]3CC[C@]12C", "Activity", 270],
  ["C/C=C/c1ccc(OC)c(OC)c1OC", "Activity", 343],
  ["C/C=C/c1cc(OC)c(OC)c(OC)c1", "Activity", 281]
]}

We now examine a further molecule.
Q: Reported Activity for C/C=C/c1c(OC)cc(OC)cc1OC : what is it?
A: 333
